Tested on: C-33 A
Experiment: Cell viability panel, ATPlite 1Step
Format: cell-based
Settings: Homo sapiens, Cervical squamous cell carcinoma, 72 h exposure, read-out: Compound EC50
endpoint.name: EC50

Output EC50 of `CN(C)CCCS(=O)(=O)N1C/C(=C\c2ccc(C#N)cc2)C(=O)/C(=C/c2ccc(C#N)cc2)C1`
< 300 nM

###

So I've got a bunch of compounds here, and I need their pEC50 values.
Tested on: U266
Assay: Cell viability, ATPlite 1-step, MM cell lines
Assay type: cell-based
Conditions: Homo sapiens, U-266; U266 MM cell line; 48 hours; read-out: Compound EC50
pEC50: −log10 of the molar value.

smiles.repr | pEC50
CNCC(=O)N1C/C(=C\c2ccc(Cl)c(Cl)c2)C(=O)/C(=C/c2ccc(Cl)c(Cl)c2)C1 | ≤ 6.00
CNC(=O)CC(=O)N1C/C(=C\c2ccc(Cl)c(Cl)c2)C(=O)/C(=C/c2ccc(Cl)c(Cl)c2)C1 | > 6.52

Proceed to the following item.
Lab note: U266 assay, enter pEC50 for `COCCNCC(=O)N1C/C(=C\c2ccc(Cl)c(Cl)c2)C(=O)/C(=C/c2ccc(Cl)c(Cl)c2)C1` here
≤ 6.00
